- TARGET DESC: Gal(b1-4)GlcNAc(b1-3)Gal(b1-4)GlcNAc(b1-3)Gal(b1-4)GlcNAc(b1-3)Gal(b1-4)GlcNAc(b1-3)Gal(b1-4)GlcNAc(b1-2)[Gal(b1-4)GlcNAc(b1-3)Gal(b1-4)GlcNAc(b1-3)Gal(b1-4)GlcNAc(b1-3)Gal(b1-4)GlcNAc(b1-3)Gal(b1-4)GlcNAc(b1-6)]Man(a1-6)[Gal(b1-4)GlcNAc(b1-3)Gal(b1-4)GlcNAc(b1-3)Gal(b1-4)GlcNAc(b1-3)Gal(b1-4)GlcNAc(b1-3)Gal(b1-4)GlcNAc(b1-2)Man(a1-3)]Man(b1-4)GlcNAc(b1-4)[Fuc(a1-6)]GlcNAc
- PROTOCOL DESCRIPTION: glycan array binding signal (z-score within array); higher = stronger binding
- APPLIED CONDITIONS: glycan notation: IUPAC condensed, linker removed
The full list was thinned out, with the strongest signals kept by preference.
glycan array binding signal (z-score) below 4 gives Not fulfilled; glycan array binding signal (z-score) at or above it gives Fulfilled.

Threshold query (glycan array binding signal (z-score) >= 4) on LSL-150 (Laetiporus sulphureus), Q7Z8V1 (protein) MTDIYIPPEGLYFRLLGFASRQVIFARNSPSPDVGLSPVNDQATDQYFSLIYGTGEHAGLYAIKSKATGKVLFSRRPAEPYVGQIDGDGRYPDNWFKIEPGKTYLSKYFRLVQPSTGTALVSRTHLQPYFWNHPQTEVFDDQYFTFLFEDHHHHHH
Fulfilled

Threshold query (glycan array binding signal (z-score) >= 4) on LecRKVI.2 (protein) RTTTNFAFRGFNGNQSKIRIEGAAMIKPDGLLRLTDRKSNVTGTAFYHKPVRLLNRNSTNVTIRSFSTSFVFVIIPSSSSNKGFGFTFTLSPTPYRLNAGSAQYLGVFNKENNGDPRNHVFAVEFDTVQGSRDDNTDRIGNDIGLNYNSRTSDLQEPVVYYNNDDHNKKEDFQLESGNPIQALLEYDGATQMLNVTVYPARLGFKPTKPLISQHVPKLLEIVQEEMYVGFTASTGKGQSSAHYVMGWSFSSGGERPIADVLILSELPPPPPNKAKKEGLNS
Not fulfilled

Threshold query (glycan array binding signal (z-score) >= 4) on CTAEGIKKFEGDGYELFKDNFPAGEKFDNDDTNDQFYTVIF [MUB40 (Lactobacillus reuteri)]
Not fulfilled

Threshold query (glycan array binding signal (z-score) >= 4) on LICBM33A (Lactococcus lactis), Q9CE94 (protein) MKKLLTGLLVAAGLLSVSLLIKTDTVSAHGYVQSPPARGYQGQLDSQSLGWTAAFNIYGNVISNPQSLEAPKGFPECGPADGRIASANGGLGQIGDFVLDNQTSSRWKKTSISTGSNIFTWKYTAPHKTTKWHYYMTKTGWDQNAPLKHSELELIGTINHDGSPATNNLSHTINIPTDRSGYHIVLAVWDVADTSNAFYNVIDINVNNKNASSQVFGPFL
Fulfilled

Threshold query (glycan array binding signal (z-score) >= 4) on WGA (Triticum vulgare) (protein) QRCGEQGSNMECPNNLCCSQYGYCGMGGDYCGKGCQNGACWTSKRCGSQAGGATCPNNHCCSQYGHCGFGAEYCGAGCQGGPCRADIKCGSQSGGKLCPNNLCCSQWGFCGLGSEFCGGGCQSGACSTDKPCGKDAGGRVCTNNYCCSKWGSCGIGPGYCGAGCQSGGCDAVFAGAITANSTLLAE
Not fulfilled
